- System Name: D(2) dopamine receptor (Rattus norvegicus, UniProt P61169)
- Sequence (P61169 whole entry): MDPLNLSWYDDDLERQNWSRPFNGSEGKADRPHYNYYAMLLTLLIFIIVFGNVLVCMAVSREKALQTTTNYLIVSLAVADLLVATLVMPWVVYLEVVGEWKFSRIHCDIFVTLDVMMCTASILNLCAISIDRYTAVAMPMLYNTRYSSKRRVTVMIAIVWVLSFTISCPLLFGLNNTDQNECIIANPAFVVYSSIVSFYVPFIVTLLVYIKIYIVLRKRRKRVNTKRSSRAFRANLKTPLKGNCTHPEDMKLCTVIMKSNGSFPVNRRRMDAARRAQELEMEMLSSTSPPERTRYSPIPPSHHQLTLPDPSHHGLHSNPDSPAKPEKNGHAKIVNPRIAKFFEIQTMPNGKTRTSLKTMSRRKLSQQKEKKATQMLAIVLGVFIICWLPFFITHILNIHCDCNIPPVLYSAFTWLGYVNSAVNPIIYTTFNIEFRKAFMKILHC
- Test Details: Inhibition of [3H]spiperone binding to Dopamine receptor D2 from rat striatal membranes
pIC50: −log10 of the molar value.
Label Y when pIC50 >= 7; otherwise N.

*Q* Could you tell me if the measured pIC50 of CCN1CCN(CCN2CCN(C3CC(c4ccc(F)cc4)c4ccc(F)cc43)CC2)C1=O.Cl.Cl (centres undefined) reaches 7 or more?
*A* Y

*Q* // inclusive: pIC50 at least 7? input: O=C1NCCN1CCN1CCN(C2CC(c3ccc(F)cc3)c3ccc(F)cc32)CC1 (centres undefined)
*A* N

----------
- System Name: UniProt P23977
- Sequence (P23977 whole entry): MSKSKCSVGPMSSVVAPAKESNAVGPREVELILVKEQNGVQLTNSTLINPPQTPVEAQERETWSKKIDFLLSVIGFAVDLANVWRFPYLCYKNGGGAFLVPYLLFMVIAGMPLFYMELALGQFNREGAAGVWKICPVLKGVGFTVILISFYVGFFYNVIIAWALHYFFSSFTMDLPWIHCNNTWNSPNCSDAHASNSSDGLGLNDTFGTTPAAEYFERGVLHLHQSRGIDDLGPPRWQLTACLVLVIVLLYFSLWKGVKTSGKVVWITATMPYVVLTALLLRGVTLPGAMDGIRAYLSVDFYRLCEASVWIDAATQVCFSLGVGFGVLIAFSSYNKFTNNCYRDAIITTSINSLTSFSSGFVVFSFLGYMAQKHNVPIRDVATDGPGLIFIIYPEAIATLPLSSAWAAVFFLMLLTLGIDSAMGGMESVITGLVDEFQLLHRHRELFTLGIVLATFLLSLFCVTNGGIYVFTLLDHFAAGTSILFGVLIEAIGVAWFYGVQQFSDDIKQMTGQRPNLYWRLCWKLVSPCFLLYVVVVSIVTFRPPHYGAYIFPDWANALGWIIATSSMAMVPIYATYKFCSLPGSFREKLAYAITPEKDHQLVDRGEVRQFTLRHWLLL
- Test Details: In vitro inhibition of [3H]dopamine uptake in rat brain synaptosomes
IC50 reference
Answer in nM, number only, no unit symbol.

Guide cases for IC50, answers given:
>>> print(df.to_string())
                                   compound  value
0  Fc1ccc([C@H]2C[C@H](N3CCNCC3)c3ccccc32)cc1.O=C(O)/C=C\C(=O)O.O=C(O)/C=C\C(=O)O    220
1  O=C(O)/C=C\C(=O)O.O=C(O)/C=C\C(=O)O.O=C1NCCN1CCN1CCN([C@@H]2C[C@@H](c3ccc(F)cc3)c3ccc(F)cc32)CC1   5700
2  O=C1NCCN1CCN1CCN([C@@H]2C[C@@H](c3ccc(F)cc3)c3ccccc32)CC1 (stereo in doubt; 27) [IRINDALONE]    100
3  O=C1NCCN1CCN1CCN([C@@H]2C[C@@H](c3ccc(F)cc3)c3ccccc32)CC1 (stereo in doubt; (+)2) [IRINDALONE]  25000
4  CN1CCN([C@@H]2C[C@@H](c3ccc(F)cc3)c3ccc(F)cc32)CC1   1700
5  O=C(O)/C=C\C(=O)O.O=C(O)/C=C\C(=O)O.O=C1NCCN1CCN1CCN([C@H]2C[C@H](c3ccc(F)cc3)c3ccc(F)cc32)CC1     67
6  O.O=C1NCCN1CCN1CCN([C@H]2C[C@H](c3ccc(F)cc3)c3ccccc32)CC1    140
7  Fc1ccc([C@@H]2C[C@@H](N3CCNCC3)c3ccccc32)cc1.O=C(O)/C=C\C(=O)O.O=C(O)/C=C\C(=O)O    280

// below: IC50 requested for another compound
*Q* Field request: IC50 | item: CN1CCN([C@H]2C[C@H](c3ccc(F)cc3)c3ccc(F)cc32)CC1
*A* 81

----------
- System: Rattus norvegicus
- Test Details: Inhibition of 5-HT induced pressor response in pithed rats, after intravenous administration of 0.02 mg/kg
- Format: functional
Change values for the compounds below.
A number alone suffices; assume %.

Guide cases for Change, answers given:
In [3]: df
Out[3]:
                                   compound  value
0  Cl.Cl.OC1=NCCN1CCN1CCN(C2CC(c3ccc(Cl)cc3)c3ccccc32)CC1 (stereo not given)     13
1  COc1cc2nc(N3CCN(C(=O)c4ccco4)CC3)nc(N)c2cc1OC [PRAZOSIN]      0
2  O=C(O)/C=C\C(=O)O.O=C(O)/C=C\C(=O)O.O=C1NCCN1CCN1CCN([C@H]2C[C@H](c3ccccc3F)c3ccccc32)CC1      0
3  Cl.Cl.O=C1OCCN1CCCN1CCN(C2CC(c3ccc(F)cc3)c3ccc(F)cc32)CC1 (stereo not given)    -32

*Q* Need Change, item Cc1nc2sccn2c(=O)c1CCN1CCC(=C(c2ccc(F)cc2)c2ccc(F)cc2)CC1 [RITANSERIN]
*A* -95

----------
- System Name: D(2) dopamine receptor (Rattus norvegicus)
- Test Details: Inhibition of [3H]spiperone binding to Dopamine receptor D2 from rat striatal membranes
pIC50: −log10 of the molar value.
Classify as follows. Reported pIC50 greater than or equal to 7: true (1). Reported pIC50 below: false (0).

Use the examples below as a reference point.
                                   molecule        cat
0  Cl.Cl.OC1=NCCN1CCN1CCN(C2CC(c3ccc(Cl)cc3)c3ccccc32)CC1 (stereo unspecified)  false (0)
1  Cl.Cl.O=c1[nH]c2ccccc2c(=O)n1CCN1CCN(C2CC(c3ccc(F)cc3)c3ccccc32)CC1 (stereo unspecified)   true (1)
2     O=C1NCCN1CCN1CCN(C(=O)c2ccc(F)cc2)CC1  false (0)
3  O=C1NCCN1CCN1CCN(C2CC(c3ccc(F)cc3)c3ccccc32)CC1 (stereo unspecified)  false (0)
4            O=C1NCCN1CCN1CCN(Cc2ccccc2)CC1  false (0)
5  O.O=c1[nH]c2ccccc2c(=O)n1CCN1CCN(C2CC(c3ccc(F)cc3)c3ccc(F)cc32)CC1 (stereo unspecified)   true (1)
6  Fc1ccc(C2CC(N3CCN(CCN4CCCN=C4S)CC3)c3cc(F)ccc32)cc1.O=C(O)/C=C\C(=O)O.O=C(O)/C=C\C(=O)O (stereo unspecified)   true (1)
7  Fc1ccc([C@H]2C[C@H](N3CCNCC3)c3ccccc32)cc1.O=C(O)/C=C\C(=O)O.O=C(O)/C=C\C(=O)O  false (0)
8  CC(C)N1CCN(CCN2CCN(C3CC(c4ccc(F)cc4)c4ccc(F)cc43)CC2)C1=O.Cl.Cl (stereo unspecified)   true (1)

Now look at this one.
*Q* Check if pIC50 >= 7 (inclusive). Item: Cl.Cl.Oc1nc2ccccc2n1CCN1CCN(C2CC(c3ccc(F)cc3)c3ccc(F)cc32)CC1 (stereo unspecified)
*A* true (1)

----------
- System Name: Serotonin 2 (5-HT2) receptor (Rattus norvegicus, UniProt P30994+P08909+P14842)
- Test Details: Inhibition of [3H]spiperone binding to 5-hydroxytryptamine 2 receptor from rat cortical membranes
- Type: cell membranes, Membrane
Below, each entry is listed with its recorded log10 of IC50.
Remember, log10 of IC50, in nM.

Worked cases, log10 of IC50 given:
                                   compound  assay_endpoint  value
0        O=C1NCCN1CCN1CCN(C(=O)c2ccccc2)CC1   log10 of IC50   3.68
1  Cl.Cl.O=c1[nH]c2ccccc2c(=O)n1CCN1CCN(C2CC(c3ccc(F)cc3)c3ccccc32)CC1 (centres undefined)   log10 of IC50   0.53
2  Fc1ccc(C2CC(N3CCNCC3)c3ccccc32)cc1 (centres undefined)   log10 of IC50   1.48

*Q* Give its log10 of IC50 value. Item: O=C1NCCN1CCN1CCN([C@@H]2C[C@@H](c3ccc(F)cc3)c3ccccc32)CC1 (stereo in doubt; 27) [IRINDALONE]
*A* 2.72

*Q* Report log10 of IC50 for OCCN1CCN([C@@H]2C[C@@H](c3ccc(F)cc3)c3ccc(C(F)(F)F)cc32)CC1 (racemic) [TEFLUDAZINE] please.
*A* 0.92

*Q* For the compound Fc1ccc([C@@H]2C[C@@H](N3CCNCC3)c3ccccc32)cc1.O=C(O)/C=C\C(=O)O.O=C(O)/C=C\C(=O)O , what log10 of IC50 is on record?
*A* 1.26

*Q* Which log10 of IC50 value is on record for Fc1ccc([C@H]2C[C@H](N3CCNCC3)c3ccccc32)cc1.O=C(O)/C=C\C(=O)O.O=C(O)/C=C\C(=O)O ?
*A* 2.26

*Q* Value lookup for log10 of IC50; key = CC(C)N1CCN(CCN2CCN(C3CC(c4ccc(F)cc4)c4ccc(F)cc43)CC2)C1=O.Cl.Cl (centres undefined)
*A* 0.68

*Q* Which log10 of IC50 value is on record for Cl.Cl.O=C1OCCN1CCN1CCN(C2CC(c3ccc(F)cc3)c3ccccc32)CC1 (centres undefined) ?
*A* 2.11

*Q* Param item = Fc1ccc([C@@H]2C[C@@H](N3CCN(CCN4CCN=C4S)CC3)c3cc(F)ccc32)cc1.O=C(O)/C=C\C(=O)O.O=C(O)/C=C\C(=O)O ; retrieve measured log10 of IC50.
*A* 0.34

*Q* Reported log10 of IC50 for Fc1ccc(C2CC(N3CCN(CCN4CCN=C4S)CC3)c3ccccc32)cc1.O=C(O)/C=C\C(=O)O.O=C(O)/C=C\C(=O)O (centres undefined) : what is it?
*A* 0.52

*Q* Item under review: Cl.Cl.Oc1nc2ccccc2n1CCN1CCN(C2CC(c3ccc(F)cc3)c3ccc(F)cc32)CC1 (centres undefined) . Reported log10 of IC50?
*A* 0.97

*Q* Which log10 of IC50 is listed for O=C(O)/C=C\C(=O)O.O=C(O)/C=C\C(=O)O.O=C1NCCN1CCN1CCN([C@@H]2C[C@@H](c3ccc(F)cc3)c3ccc(F)cc32)CC1 ?
*A* 0.63

*Q* Which log10 of IC50 value belongs to CN1CCN(CCN2CCN(C3CC(c4ccc(F)cc4)c4ccccc43)CC2)C1=O.Cl.Cl.O (centres undefined) ?
*A* 1.11

*Q* State the recorded log10 of IC50 for this entry: O=C(O)/C=C\C(=O)O.O=C(O)/C=C\C(=O)O.O=C1NCCCN1CCN1CCN(C2CC(c3ccc(F)cc3)c3ccc(F)cc32)CC1 (centres undefined)
*A* 1.04

*Q* Find the recorded log10 of IC50 belonging to Fc1ccc(C2CC(N3CCN(CCN4CCCN=C4S)CC3)c3cc(F)ccc32)cc1.O=C(O)/C=C\C(=O)O.O=C(O)/C=C\C(=O)O (centres undefined) and report it.
*A* 0.88

*Q* Need log10 of IC50, item Cl.Cl.O=C1OCCN1CCCN1CCN(C2CC(c3ccc(F)cc3)c3ccc(F)cc32)CC1 (centres undefined)
*A* 1.34

*Q* What log10 of IC50 value was documented for this compound, O=C1NCCN1CCN1CCN(C2CCc3ccccc32)CC1 (centres undefined) ?
*A* 3.71

*Q* What does the data say about its log10 of IC50? Entry: O=C1NCCN1CCN1CCN(C(=O)c2ccc(F)cc2)CC1
*A* 4.76

*Q* Quick one: log10 of IC50 of O.O=c1[nH]c2ccccc2c(=O)n1CCN1CCN(C2CC(c3ccc(F)cc3)c3ccc(F)cc32)CC1 (centres undefined) ?
*A* 0.46

*Q* Bench note: what log10 of IC50 did CN1CCN(C2CC(c3ccc(F)cc3)c3ccc(F)cc32)CC1 (centres undefined) show?
*A* 0.89
